Origin of values: ChEMBL document CHEMBL3046322

Provide the reported Length gained (% of control) of each item.
# Tested on: Spodoptera frugiperda
# Protocol details: Growth inhibitory activity against first-instar larval stage of Spodoptera frugiperda (fall armyworm) fed with compound incorporated diet assessed as length gained at 5 ug/ml after 21 days (reference value: 100%)
# Format: functional
Output spec: scalar in %, unitless text.

Problem: Find Length gained (% of control) (Spodoptera frugiperda) for the entry C=CC(C)(C)C1=C(O)C(=O)c2ccccc2C1=O
Result: 64.3

Problem: Try this molecule too: C[C@H]1[C@H](C)CC[C@]2(C(=O)O)CC[C@]3(C)C(=CC[C@@H]4[C@@]5(C)CC[C@H](O)C(C)(C)[C@@H]5CC[C@]43C)[C@H]12
Result: 57.2

Problem: Okay, and CC(C)c1ccc2c(c1)CC[C@H]1[C@](C)(CO)CCC[C@]21C ?
Result: 85.6

Problem: And what about the molecule C=C[C@]1(C)CC[C@H]2C(=CC[C@@H]3[C@](C)(CO)CC[C@@H]4C[C@@]432)C1 ?
Result: 55

----------
# Test system: Spodoptera frugiperda
# Protocol details: Growth inhibitory activity against Spodoptera frugiperda (fall armyworm) larvae fed with compound containing diet assessed as growth index at 5 ug/ml (reference value: 0.95 +/-0.02 no_unit)
# Type: functional
Task for the reader: assign each of the following compounds its reported Growth_index.
The answer should be a number; do not append a unit.

Problem: What value of Growth_index has been recorded for this entry: CC(C)c1ccc2c(c1)CC[C@H]1[C@](C)(CO)CCC[C@]21C [POMIFERIN A]
Result: 0.97

Problem: Request: C=C[C@]1(C)CC[C@H]2C(=CC[C@@H]3[C@](C)(CO)CC[C@@H]4C[C@@]432)C1
Result: 0.41

Problem: C[C@H]1[C@H](C)CC[C@]2(C(=O)O)CC[C@]3(C)C(=CC[C@@H]4[C@@]5(C)CC[C@H](O)C(C)(C)[C@@H]5CC[C@]43C)[C@H]12 [URSOLIC ACID] , same question.
Result: 0.93

Problem: Then what about the compound C=CC(C)(C)C1=C(O)C(=O)c2ccccc2C1=O ?
Result: 0.71

----------
Kindly state mortality at 5 µg/mL for each of the entries shown.
# System: Spodoptera frugiperda
# Protocol details: Insecticidal activity against first-instar larval stage of Spodoptera frugiperda (fall armyworm) fed with compound incorporated diet assessed as mortality at 5 ug/ml after 7 days (reference value: 5.6%)
# Assay type: functional
# Run parameters: 168 h
The reply should contain only the number, in %.

Problem: Lab note: need mortality at 5 µg/mL for C[C@H]1[C@H](C)CC[C@]2(C(=O)O)CC[C@]3(C)C(=CC[C@@H]4[C@@]5(C)CC[C@H](O)C(C)(C)[C@@H]5CC[C@]43C)[C@H]12 [URSOLIC ACID] on Spodoptera frugiperda, anyone have it?
Result: 4.2

Problem: Same read-out for C=CC(C)(C)C1=C(O)C(=O)c2ccccc2C1=O ?
Result: 41.7

Problem: Could you do the same for CC(C)c1ccc2c(c1)CC[C@H]1[C@](C)(CO)CCC[C@]21C [POMIFERIN A] , please?
Result: 33.3

Problem: Query C=C[C@]1(C)CC[C@H]2C(=CC[C@@H]3[C@](C)(CO)CC[C@@H]4C[C@@]432)C1 next
Result: 20.8

----------
For each of the molecules below, state its Activity.
# Test system: Spodoptera frugiperda
# Protocol details: Growth inhibitory activity against first-instar larval stage of Spodoptera frugiperda (fall armyworm) fed with compound incorporated diet assessed as weight gained at 5 ug/ml after 7 days (reference value: 100%)
# Format: functional
# Parameters: scale not given: the % may be the effect or the level left
Unit % implied. Number only.

Problem: State the recorded Activity for this entry: CC(C)c1ccc2c(c1)CC[C@H]1[C@](C)(CO)CCC[C@]21C
Result: 89.5

Problem: Subsequent entry: C[C@H]1[C@H](C)CC[C@]2(C(=O)O)CC[C@]3(C)C(=CC[C@@H]4[C@@]5(C)CC[C@H](O)C(C)(C)[C@@H]5CC[C@]43C)[C@H]12
Result: 81.5

Problem: Can you handle C=C[C@]1(C)CC[C@H]2C(=CC[C@@H]3[C@](C)(CO)CC[C@@H]4C[C@@]432)C1 next?
Result: 25.1

Problem: Cool, now C=CC(C)(C)C1=C(O)C(=O)c2ccccc2C1=O
Result: 47.4
